Molecular target: recombinant CaMKIIδ (Homo sapiens (Human))
Experiment: CaMKIIδ biochemical assay (HTRF)
Conditions: 10 pM CaMKIIδ, 110 nM calmodulin, 12 μM ATP, 1 hour; read-out: CAMKIID-HTRF-384V2 (IC50 - nM)
Property: log10(IC50) (log10 of the value in nM)
Hi team, quick reminder: these entries are log10 of IC50 (nM).

// field: log10(IC50); key: `NC[C@@H]1CCCCN1C(=O)c1cc(Cl)nc(-c2cnn3ccc(-c4cccs4)nc23)c1` ; value = 1.62

// field: log10(IC50); key: CCN(CC)[C@@H](CO)CNC(=O)c1cc(-c2cnn3ccc(-c4cccs4)nc23)nc(N2CC[C@H]2C(=O)NC)c1 [Example 358] ; value = -0.34

// field: log10(IC50); key: `CCN(CC)[C@@H](C)CNC(=O)c1cc(-c2cnn3ccc(-c4cccs4)nc23)nc(N2CCC(C)(O)CC2)c1` ; value = -0.74

// field: log10(IC50); key: `N[C@@H](CO)CNC(=O)c1ccnc(-c2cnn3ccc(-c4ccccc4)nc23)c1` ; value = 1.42

// field: log10(IC50); key: `CCN(CC)[C@@H](C)CNC(=O)c1cc(-c2cnn3ccc(-c4cccs4)nc23)nc(N2CC3(CCC3(F)F)C2)c1` ; value = -0.70

// field: log10(IC50); key: `Cc1cc(C(=O)N2CCCC[C@@H]2CN)cc(-c2cnn3ccc(-c4ccccc4)nc23)n1` ; value = 0.15

// field: log10(IC50); key: `CCN(CC)[C@@H](C)CNC(=O)c1cc(-c2cnn3ccc(-c4cccs4)nc23)nc(-n2cncn2)c1` ; value = 0.27

// field: log10(IC50); key: `CCN(CC)[C@@H](C)CNC(=O)c1cc(-c2cnn3ccc(-c4cccs4)nc23)nc(N2CC[C@H]2C(N)=O)c1` ; value = -0.66

// field: log10(IC50); key: `CCN(CC)[C@@H](C)CNC(=O)c1cc(-c2cnn3ccc(-c4cccs4)nc23)nc(N2CC[C@H]2C(=O)NC)c1` ; value = -0.70

// field: log10(IC50); key: `CCN(CC)[C@@H](C)CNC(=O)c1cc(-c2cnn3ccc(-c4cccs4)nc23)nc(N2CC[C@H]2C(=O)N2CCCC2)c1` ; value = -0.54

// field: log10(IC50); key: `CCNc1cc(C(=O)NC[C@H](C)N(CC)CC)cc(-c2cnn3ccc(-c4cccs4)nc23)n1` ; value = -0.27

// field: log10(IC50); key: `CCN(CC)[C@@H](C)CNC(=O)c1cc(OCc2cccnc2)nc(-c2cnn3ccc(-c4cccs4)nc23)c1` ; value = 0.02

// field: log10(IC50); key: `CCN(CC)[C@@H](C)CNC(=O)c1cc(-c2cnn3ccc(-c4cccs4)nc23)nc(N2CC[C@H](C(=O)NC)C2)c1` ; value = -0.60

// field: log10(IC50); key: `CCN(CC)[C@@H](C)CNC(=O)c1cc(-c2cnn3ccc(-c4cccs4)nc23)nc(N2CC[C@@H](N)C2)c1` ; value = -1.30
